Molecular target: SMARCA2 (Homo sapiens)
Experiment: SMARCA2 Western blot MV4-11 degradation
Assay type: cell-based
Set-up: SMARCA2 and SMARCA4 protein degradation in MV4-11 cells; endogenous in cells; host or cells: MV4-11
Details: MV4-11, MV4-11 cells, 24 h; read-out: SMARCA2 MSD MV411 degradation 24 h: average Dmax %
Kindly supply the reported Dmax values for the records listed here.

Here are 2 compounds together with their reported answers.
COMPOUND: Cc1ncsc1-c1ccc(CNC(=O)[C@@H]2C[C@@H](O)CN2C(=O)[C@@H](c2cc(N3CCC(N4CCC(c5cnc(N6C7CCC6CN(c6cc(-c8ccccc8O)nnc6N)C7)nc5)CC4)CC3)no2)C(C)C)cc1
Dmax: > 90%

COMPOUND: Cc1ncsc1-c1ccc(CNC(=O)[C@@H]2C[C@@H](O)CN2C(=O)C(c2cc(N3CCC(N4CCC(c5cnc(N6C7CCC6CN(c6cc(-c8ccccc8O)nnc6N)C7)nc5)CC4)CC3)no2)C(C)C)cc1 (mixture of isomers)
Dmax: > 90%

Switching to the query record.
Query :: Field request: Dmax | item: Cc1ncsc1-c1ccc([C@H](C)NC(=O)[C@@H]2C[C@@H](O)CN2C(=O)[C@@H](NC(=O)[C@H]2CCC3(CC2)C[C@H](N2CCC(c4cnc(N5C6CCC5CN(c5cc(-c7ccccc7O)nnc5N)C6)nc4)CC2)C3)C(C)(C)C)cc1 (stereo in doubt)
Result :: > 90%

====

I'd be grateful if you could share measured DC50 for these entries.
Target: SMARCA2 (Homo sapiens)
Experiment: SMARCA2 Western blot MV4-11 degradation
Format: cell-based
Design: SMARCA2 and SMARCA4 protein degradation in MV4-11 cells; endogenous in cells; host or cells: MV4-11
Conditions: MV4-11 cells, 24 h; read-out: SMARCA2 MSD MV411 degradation 24 h: Mean external-Abs DC50

COMPOUND: Cn1nccc1-c1ccc(CNC(=O)[C@@H]2C[C@@H](O)CN2C(=O)[C@@H](NC(=O)[C@H]2CC[C@H](c3cnc(N4C5CCC4CN(c4cc(-c6ccccc6O)nnc4N)C5)nc3)CC2)C(C)(C)C)cc1
DC50: < 100 nM

Go through the items and report each one's DC50.
1. Cc1n[nH]c(C)c1-c1ccc(CNC(=O)[C@@H]2C[C@@H](O)CN2C(=O)[C@@H](NC(=O)[C@H]2CC3(C2)C[C@H](N2CCC(c4cnc(N5C6CCC5CN(c5cc(-c7ccccc7O)nnc5N)C6)nc4)CC2)C3)C(C)(C)C)cc1 (stereo partly drawn) [I-32]
2. Cc1ncsc1-c1ccc(CNC(=O)[C@@H]2C[C@@H](O)CN2C(=O)[C@@H](NC(=O)[C@H]2CC3(C2)C[C@H](N2CC4(CN(c5cnc(N6C7CCC6CN(c6cc(-c8ccccc8O)nnc6N)C7)nc5)C4)C2)C3)C(C)(C)C)cc1 (stereo partly drawn) [I-11]
3. Cc1ncsc1-c1ccc(CNC(=O)[C@@H]2C[C@@H](O)CN2C(=O)[C@@H](NC(=O)C2CC3(C2)CN(C2CCN(c4cnc(N5C6CCC5CN(c5cc(-c7ccccc7O)nnc5N)C6)nc4)CC2)C3)C(C)(C)C)cc1
4. Cc1ncsc1-c1ccc(CNC(=O)[C@@H]2C[C@@H](O)CN2C(=O)[C@@H](NC(=O)CN2CC3(C2)CN(C2CCC(c4cnc(N5C6CCC5CN(c5cc(-c7ccccc7O)nnc5N)C6)nc4)CC2)C3)C(C)(C)C)cc1 (stereo partly drawn)
5. Cc1cc(C(C(=O)N2C[C@H](O)C[C@H]2C(=O)NCc2ccc(-c3scnc3C)cc2)C(C)CCN2CCC(c3cnc(N4C5CCC4CN(c4cc(-c6ccccc6O)nnc4N)C5)nc3)CC2)on1 (single isomer, unassigned) [I-46]
6. Cc1ncsc1-c1ccc(CNC(=O)[C@@H]2C[C@@H](O)CN2C(=O)[C@@H](NC(=O)[C@H]2CC3(CC[C@H](N4CCC(c5cnc(N6C7CCC6CN(c6cc(-c8ccccc8O)nnc6N)C7)nc5)CC4)CC3)C2)C(C)(C)C)cc1 (stereo partly drawn) [I-13]
7. Cc1ncsc1-c1ccc([C@H](C)NC(=O)[C@@H]2C[C@@H](O)CN2C(=O)[C@@H](NC(=O)[C@H]2CC3(C2)C[C@H](N2CCC(c4ccc(N5C6CCC5CN(c5cc(-c7ccccc7O)nnc5N)C6)cc4)CC2)C3)C(C)(C)C)cn1 (single isomer, unassigned) [I-6]
8. Cc1ncsc1-c1ccc(CNC(=O)[C@@H]2C[C@@H](O)CN2C(=O)[C@@H](NC(=O)[C@H]2CC3(C2)C[C@H](N2CCC(Oc4ccc(N5C6CCC5CN(c5cc(-c7ccccc7O)nnc5N)C6)cn4)CC2)C3)C(C)(C)C)cc1 (stereo partly drawn) [I-39]

Result ::
100 to 500 nM
< 100 nM
< 100 nM
< 100 nM
< 100 nM
< 100 nM
501 to 1000 nM
100 to 500 nM

# batch: return DC50 for each of the 3 compounds below
1. Cc1ncsc1-c1ccc(CNC(=O)[C@@H]2C[C@@H](O)CN2C(=O)C(c2cc(N3CCC(N4CCC(c5cnc(N6C7CCC6CN(c6cc(-c8ccccc8O)nnc6N)C7)nc5)CC4)CC3)no2)C(C)C)cc1 (mixture of isomers)
2. Cc1ncsc1-c1ccc(CNC(=O)[C@@H]2C[C@@H](O)CN2C(=O)C(c2cc(N3CCC(CCN4CCC(c5cnc(N6C7CCC6CN(c6cc(-c8ccccc8O)nnc6N)C7)nc5)CC4)CC3)no2)C(C)C)cc1 (stereo partly drawn)
3. Cc1ncsc1-c1ccc(CNC(=O)[C@@H]2C[C@@H](O)CN2C(=O)[C@@H](NC(=O)[C@H]2CC3(C2)C[C@H](N2CCC(Oc4ccc(N5C6CCC5CN(c5cc(-c7ccccc7O)nnc5N)C6)cn4)CC2)C3)C(C)(C)C)cc1 (stereo partly drawn) [I-40]

Result ::
1: < 100 nM; 2: < 100 nM; 3: < 100 nM

====

Target: SMARCA2 (Homo sapiens, UniProt P51531)
Sequence (P51531 whole entry): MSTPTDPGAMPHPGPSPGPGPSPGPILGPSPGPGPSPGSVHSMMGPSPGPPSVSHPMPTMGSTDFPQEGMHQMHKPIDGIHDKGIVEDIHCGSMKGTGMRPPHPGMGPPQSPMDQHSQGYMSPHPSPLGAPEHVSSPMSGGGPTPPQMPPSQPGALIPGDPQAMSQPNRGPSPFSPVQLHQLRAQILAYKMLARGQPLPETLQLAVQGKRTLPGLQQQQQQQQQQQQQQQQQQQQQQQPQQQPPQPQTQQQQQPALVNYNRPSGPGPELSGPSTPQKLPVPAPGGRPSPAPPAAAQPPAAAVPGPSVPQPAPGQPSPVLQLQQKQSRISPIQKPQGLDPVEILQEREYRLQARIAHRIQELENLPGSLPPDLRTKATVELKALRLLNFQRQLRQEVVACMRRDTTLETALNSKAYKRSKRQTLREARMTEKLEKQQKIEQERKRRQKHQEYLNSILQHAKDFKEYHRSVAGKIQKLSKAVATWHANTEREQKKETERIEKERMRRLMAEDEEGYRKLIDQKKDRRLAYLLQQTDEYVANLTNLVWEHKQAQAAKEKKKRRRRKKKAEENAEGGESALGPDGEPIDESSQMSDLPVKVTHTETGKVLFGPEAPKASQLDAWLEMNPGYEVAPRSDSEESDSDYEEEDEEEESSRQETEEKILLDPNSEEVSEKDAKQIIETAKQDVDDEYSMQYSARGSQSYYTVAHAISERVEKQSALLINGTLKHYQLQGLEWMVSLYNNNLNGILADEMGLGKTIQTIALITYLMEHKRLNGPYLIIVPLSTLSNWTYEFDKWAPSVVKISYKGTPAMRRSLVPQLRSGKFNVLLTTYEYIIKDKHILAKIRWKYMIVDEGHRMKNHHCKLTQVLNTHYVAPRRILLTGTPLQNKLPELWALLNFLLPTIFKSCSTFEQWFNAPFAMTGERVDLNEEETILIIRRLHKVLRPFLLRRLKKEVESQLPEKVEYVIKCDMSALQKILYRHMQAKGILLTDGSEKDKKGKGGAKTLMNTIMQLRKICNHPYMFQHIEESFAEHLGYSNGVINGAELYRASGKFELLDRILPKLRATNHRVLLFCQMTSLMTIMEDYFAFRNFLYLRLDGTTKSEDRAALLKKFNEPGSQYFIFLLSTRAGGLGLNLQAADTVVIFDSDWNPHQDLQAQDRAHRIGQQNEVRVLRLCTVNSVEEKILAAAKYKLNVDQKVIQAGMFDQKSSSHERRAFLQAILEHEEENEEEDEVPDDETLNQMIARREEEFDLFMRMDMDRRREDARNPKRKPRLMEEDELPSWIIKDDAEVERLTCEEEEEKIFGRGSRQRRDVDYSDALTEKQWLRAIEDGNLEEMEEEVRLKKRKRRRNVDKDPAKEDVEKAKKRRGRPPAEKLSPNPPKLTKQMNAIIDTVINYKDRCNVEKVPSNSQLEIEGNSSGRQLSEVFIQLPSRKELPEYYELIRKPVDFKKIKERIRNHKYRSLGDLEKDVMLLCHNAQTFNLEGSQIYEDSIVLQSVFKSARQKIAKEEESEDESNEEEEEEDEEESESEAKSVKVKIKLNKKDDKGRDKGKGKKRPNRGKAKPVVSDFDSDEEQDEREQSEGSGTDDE
Test: SMARCA2 Western blot MV4-11 degradation
Assay type: cell-based
Design: SMARCA2 and SMARCA4 protein degradation in MV4-11 cells; endogenous in cells; host or cells: MV4-11
Conditions: MV4-11 cells, 24 h; read-out: SMARCA2 MSD MV411 degradation 24 h: Mean external-Abs DC50
PROPERTY MEASURED: DC50

Solved cases (5 shown):
MOLECULE: Cc1ncsc1-c1ccc(CNC(=O)[C@@H]2C[C@@H](O)CN2C(=O)[C@@H](NC(=O)[C@H]2CC3(C2)C[C@H](N2CCN(c4cnc(N5C6CCC5CN(c5cc(-c7ccccc7O)nnc5N)C6)nc4)CC2)C3)C(C)(C)C)cc1 (single isomer, unassigned) [I-9]
RESULT: < 0.1 µM
--
MOLECULE: Cc1n[nH]c(C)c1-c1ccc(CNC(=O)[C@@H]2C[C@@H](O)CN2C(=O)[C@@H](NC(=O)[C@H]2CC3(C2)C[C@H](N2CCC(c4cnc(N5C6CCC5CN(c5cc(-c7ccccc7O)nnc5N)C6)nc4)CC2)C3)C(C)(C)C)cc1 (stereo partly drawn) [I-31]
RESULT: < 0.1 µM
--
MOLECULE: Cc1ncsc1-c1ccc(CNC(=O)[C@@H]2C[C@@H](O)CN2C(=O)[C@@H](NC(=O)C2CC3(C2)CN(C2CCC(c4cnc(N5C6CCC5CN(c5cc(-c7ccccc7O)nnc5N)C6)nc4)CC2)C3)C(C)(C)C)cc1 (stereo partly drawn)
RESULT: < 0.1 µM
--
MOLECULE: Cc1cc(C(C(=O)N2C[C@H](O)C[C@H]2C(=O)NCc2ccc(-c3scnc3C)cc2)C(C)CCN2CCC(c3cnc(N4C5CCC4CN(c4cc(-c6ccccc6O)nnc4N)C5)nc3)CC2)on1 (single isomer, unassigned) [I-45]
RESULT: < 0.1 µM
--
MOLECULE: Cc1ncsc1-c1ccc(CNC(=O)[C@@H]2C[C@@H](O)CN2C(=O)C(c2cc(OCCN3CCC(c4cnc(N5C6CCC5CN(c5cc(-c7ccccc7O)nnc5N)C6)nc4)CC3)no2)C(C)C)cc1 (stereo partly drawn)
RESULT: < 0.1 µM

Each of the following entries comes with a recorded value; kindly state DC50 for each.
1. Cc1ncsc1-c1ccc([C@H](C)NC(=O)[C@@H]2C[C@@H](O)CN2C(=O)[C@@H](NC(=O)[C@H]2CC3(C2)C[C@H](N2CCC(c4cnc(N5C6CCC5CN(c5cc(-c7ccccc7O)nnc5N)C6)nc4)CC2)C3)C(C)(C)C)cc1 (single isomer, unassigned) [I-1]
2. Cc1ncsc1-c1ccc(CNC(=O)[C@@H]2C[C@@H](O)CN2C(=O)[C@@H](NC(=O)C2CC3(C2)CC(N2CCC(Oc4cc(N5C6CCC5CN(c5cc(-c7ccccc7O)nnc5N)C6)ccn4)CC2)C3)C(C)(C)C)cc1 (stereo partly drawn)
3. Cc1ncsc1-c1ccc(CNC(=O)[C@@H]2C[C@@H](O)CN2C(=O)[C@@H](NC(=O)[C@H]2CC3(C2)C[C@H](N2CCC(c4ccc(N5C6CCC5CN(c5cc(-c7ccccc7O)nnc5N)C6)cc4)CC2)C3)C(C)(C)C)nc1 (stereo partly drawn) [I-24]
4. Cc1cc(C(C(=O)N2C[C@H](O)C[C@H]2C(=O)NCc2ccc(-c3scnc3C)cc2)C(C)CCN2CCC(c3cnc(N4C5CCC4CN(c4cc(-c6ccccc6O)nnc4N)C5)nc3)CC2)on1 (stereo partly drawn) [I-44]

Result ::
< 0.1 µM
> 1 µM
0.1 to 0.5 µM
< 0.1 µM
